Target: eqBuChE (Equus caballus)
Construct: AChE was obtained from electric eel and BuChE from equine serum
Sequence (P81908 whole entry): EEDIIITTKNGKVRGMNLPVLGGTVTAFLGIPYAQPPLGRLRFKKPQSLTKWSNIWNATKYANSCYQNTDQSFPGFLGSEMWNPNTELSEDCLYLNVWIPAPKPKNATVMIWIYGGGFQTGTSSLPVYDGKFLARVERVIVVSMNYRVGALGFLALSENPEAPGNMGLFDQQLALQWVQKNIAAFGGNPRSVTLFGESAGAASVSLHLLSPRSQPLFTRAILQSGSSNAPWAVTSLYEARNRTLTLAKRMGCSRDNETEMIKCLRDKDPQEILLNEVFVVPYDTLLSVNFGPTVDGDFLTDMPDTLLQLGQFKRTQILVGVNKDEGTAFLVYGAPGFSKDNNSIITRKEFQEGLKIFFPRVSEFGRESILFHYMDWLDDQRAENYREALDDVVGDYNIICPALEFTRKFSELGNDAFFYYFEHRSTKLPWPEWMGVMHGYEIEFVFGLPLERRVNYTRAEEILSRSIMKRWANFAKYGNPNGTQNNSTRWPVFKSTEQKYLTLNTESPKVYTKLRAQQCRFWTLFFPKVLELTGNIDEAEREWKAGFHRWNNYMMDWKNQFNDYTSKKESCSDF
Assay: kinetic studies of eqBuChE inhibition
Conditions: replot of Lineweaver–Burk data; read-out: dissociation constant (Ki) for eqBuChE
measurement_type: Ki (nM)
Give bare numbers, in nM.

Requested read-out Ki, target or system eqBuChE (Equus caballus), entry c1ccc(-c2ccc(OCCCCCCN3CCCCCC3)cc2)cc1 [Compound 5]
652

---

For each of the compounds below, state its Ki.
Target: human histamine H3 receptor (Homo sapiens)
Construct: expressed in transfected cells; host or cells: HEK293
Sequence (Q9Y5N1 whole entry): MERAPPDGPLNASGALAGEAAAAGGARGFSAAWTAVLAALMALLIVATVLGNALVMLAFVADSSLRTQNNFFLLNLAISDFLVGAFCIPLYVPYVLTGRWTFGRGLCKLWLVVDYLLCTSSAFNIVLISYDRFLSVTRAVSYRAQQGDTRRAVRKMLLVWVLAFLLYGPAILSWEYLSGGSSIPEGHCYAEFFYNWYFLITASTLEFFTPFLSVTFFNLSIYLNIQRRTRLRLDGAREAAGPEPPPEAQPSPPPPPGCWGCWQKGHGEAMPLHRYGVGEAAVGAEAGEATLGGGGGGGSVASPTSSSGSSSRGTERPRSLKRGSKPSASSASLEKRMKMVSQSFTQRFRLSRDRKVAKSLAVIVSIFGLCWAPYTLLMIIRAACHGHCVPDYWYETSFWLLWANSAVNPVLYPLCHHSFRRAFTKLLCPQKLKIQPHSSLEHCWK
Experiment: hH3R radioligand binding assay ([3H]Nα-methylhistamine)
Conditions: [3H]Nα-methylhistamine, HEK293 cells stably expressing human H3R; read-out: hH3R Ki Mean ± SD [CI 95%]
One number for each entry, in nM.

INSERT INTO measurements (compound, test_result) VALUES
  ('CC1CCCN(CCCCCOc2ccc(-c3ccccc3)cc2)C1 (centres unmarked)', 27.3);

Please give the measured Ki for this compound: CC1CCCN(CCCCCCOc2ccc(-c3ccccc3)cc2)C1 (centres unmarked)
146
